Target: UniProt:P51813
Sequence (P51813 whole entry): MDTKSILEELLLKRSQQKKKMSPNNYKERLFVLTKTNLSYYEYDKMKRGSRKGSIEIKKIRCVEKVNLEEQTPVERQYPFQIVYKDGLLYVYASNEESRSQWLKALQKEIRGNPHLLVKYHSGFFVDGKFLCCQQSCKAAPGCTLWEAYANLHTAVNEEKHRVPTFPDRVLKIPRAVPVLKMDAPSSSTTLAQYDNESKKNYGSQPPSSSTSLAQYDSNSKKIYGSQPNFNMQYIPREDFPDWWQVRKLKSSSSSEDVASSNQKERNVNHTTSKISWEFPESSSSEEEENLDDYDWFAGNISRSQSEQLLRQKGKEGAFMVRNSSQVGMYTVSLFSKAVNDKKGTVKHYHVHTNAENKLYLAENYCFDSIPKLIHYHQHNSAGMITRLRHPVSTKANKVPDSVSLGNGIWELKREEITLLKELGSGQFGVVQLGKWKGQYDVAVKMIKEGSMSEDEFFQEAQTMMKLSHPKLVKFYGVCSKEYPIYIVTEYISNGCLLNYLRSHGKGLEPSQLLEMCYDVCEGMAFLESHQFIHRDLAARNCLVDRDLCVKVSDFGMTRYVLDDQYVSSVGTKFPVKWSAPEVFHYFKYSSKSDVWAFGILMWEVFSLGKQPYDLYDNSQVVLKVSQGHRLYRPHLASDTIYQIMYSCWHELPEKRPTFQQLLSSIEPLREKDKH
reportedEndpoint: GI50 (nM)

Use these answered entries as a reference point.
Task item: Which GI50 value is on record for C=CC(=O)Nc1cc(Nc2ncc(C(=O)Nc3cc(NC(=O)c4ccccc4OC)ccc3C)c(NC)n2)ccc1C ?
Reply: 670

Task item: Which GI50 value is on record for C=CC(=O)Nc1cc(Nc2ncc3c(n2)N(C)C(=O)N(c2cc(NC(=O)[C@H]4CC[C@H](CCC)CC4)ccc2C)C3)ccc1C ?
Reply: 640

Task item: Which GI50 value is on record for C=CC(=O)Nc1cc(Nc2ncc3c(n2)N(C)C(=O)N(c2cc(NC(=O)[C@H]4CC[C@H](C)CC4)ccc2C)C3)ccc1C ?
Reply: 2280

Task item: Which GI50 value is on record for C=CC(=O)Nc1cc(Nc2ncc3c(n2)N(C)C(=O)N(c2cc(NC(=O)[C@H]4CC[C@H](CCCC)CC4)ccc2C)C3)ccc1C ?
Reply: 2490

A = C=CC(=O)Nc1cc(Nc2ncc(C(=O)Nc3cc(NC(=O)c4cccc(C(F)(F)F)c4)ccc3C)c(NC)n2)ccc1C
B = C=CC(=O)Nc1cc(Nc2ncc3c(n2)N(C)C(=O)N(c2cc(NC(=O)c4ccccc4OC)ccc2C)C3)ccc1C
Task item: Select one. Lower GI50: A or B Answer = label.
Reply: A
(A: 13 nM, B: 3010 nM)

* * *

Assay: Growth inhibition of CHL cells after 72 hrs by CellTiter-Glo or CCK-8 assay
Assay type: cell-based, Cricetulus griseus
Conditions: chinese hamster
reportedEndpoint: GI50 at 72 h

Task item: Which GI50 at 72 h value is on record for C=CC(=O)Nc1cc(Nc2ncc(C(=O)Nc3cc(NC(=O)c4cc(OC)c(OC)c(OC)c4)ccc3C)c(NC)n2)ccc1C ?
Reply: > 10 µM

* * *

Target: Mast/stem cell growth factor receptor Kit (Homo sapiens) (UniProt P10721)
Sequence (P10721 whole entry, the tested form may be a part): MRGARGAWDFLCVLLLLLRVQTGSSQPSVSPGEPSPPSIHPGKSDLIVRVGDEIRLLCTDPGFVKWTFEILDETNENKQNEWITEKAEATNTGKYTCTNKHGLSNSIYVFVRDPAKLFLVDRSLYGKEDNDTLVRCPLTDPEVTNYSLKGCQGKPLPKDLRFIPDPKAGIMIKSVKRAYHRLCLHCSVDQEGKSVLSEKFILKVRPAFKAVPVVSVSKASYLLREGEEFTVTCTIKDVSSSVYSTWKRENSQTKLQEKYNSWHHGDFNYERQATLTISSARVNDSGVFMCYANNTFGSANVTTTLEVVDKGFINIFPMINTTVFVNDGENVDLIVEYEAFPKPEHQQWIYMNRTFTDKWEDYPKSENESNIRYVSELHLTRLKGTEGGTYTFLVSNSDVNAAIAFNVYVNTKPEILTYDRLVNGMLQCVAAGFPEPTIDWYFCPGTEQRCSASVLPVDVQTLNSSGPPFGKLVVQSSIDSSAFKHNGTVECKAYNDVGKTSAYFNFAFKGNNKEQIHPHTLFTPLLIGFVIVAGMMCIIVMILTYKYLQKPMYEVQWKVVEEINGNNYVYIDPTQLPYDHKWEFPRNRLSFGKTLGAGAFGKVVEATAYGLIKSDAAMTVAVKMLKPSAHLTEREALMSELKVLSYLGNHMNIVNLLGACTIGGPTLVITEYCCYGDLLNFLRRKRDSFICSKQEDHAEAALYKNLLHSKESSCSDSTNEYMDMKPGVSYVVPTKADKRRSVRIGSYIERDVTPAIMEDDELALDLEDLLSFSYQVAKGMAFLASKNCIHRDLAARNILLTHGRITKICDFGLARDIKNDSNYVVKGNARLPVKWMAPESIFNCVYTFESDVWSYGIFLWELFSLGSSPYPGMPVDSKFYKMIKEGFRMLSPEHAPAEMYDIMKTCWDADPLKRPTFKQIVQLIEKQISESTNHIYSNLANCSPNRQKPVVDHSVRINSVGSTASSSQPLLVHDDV
Test: Inhibition of recombinant TEL-fused c-KIT (unknown origin) expressed in mouse BAF3 cells assessed as growth inhibition after 72 hrs by CellTiter-Glo or CCK-8 assay
Format: cell-based
reportedEndpoint: GI50 (nM)

Task item: Which GI50 value is on record for C=CC(=O)Nc1cc(Nc2ncc(C(=O)Nc3cc(NC(=O)c4cc(OC)c(OC)c(OC)c4)ccc3C)c(NC)n2)ccc1C ?
Reply: 2010

P = C=CC(=O)Nc1cc(Nc2ncc(C(=O)Nc3cc(NC(=O)c4cccc(C(F)(F)F)c4)ccc3C)c(NC)n2)ccc1C
Q = CCC(=O)Nc1cc(Nc2ncc(C(=O)Nc3cc(NC(=O)c4cc(OC)c(OC)c(OC)c4)ccc3C)c(NC)n2)ccc1C
R = CCC(=O)Nc1cc(Nc2ncc(C(=O)Nc3cc(NC(=O)c4cccc(C(F)(F)F)c4)ccc3C)c(NC)n2)ccc1C
Task item: Put the items in order so that reported GI50 rises from first to last. When ranking, write the labels in the order the request describes.
Reply: R, P, Q

* * *

Biological target: UniProt P52333
Sequence (P52333 whole entry, the tested form may be a part): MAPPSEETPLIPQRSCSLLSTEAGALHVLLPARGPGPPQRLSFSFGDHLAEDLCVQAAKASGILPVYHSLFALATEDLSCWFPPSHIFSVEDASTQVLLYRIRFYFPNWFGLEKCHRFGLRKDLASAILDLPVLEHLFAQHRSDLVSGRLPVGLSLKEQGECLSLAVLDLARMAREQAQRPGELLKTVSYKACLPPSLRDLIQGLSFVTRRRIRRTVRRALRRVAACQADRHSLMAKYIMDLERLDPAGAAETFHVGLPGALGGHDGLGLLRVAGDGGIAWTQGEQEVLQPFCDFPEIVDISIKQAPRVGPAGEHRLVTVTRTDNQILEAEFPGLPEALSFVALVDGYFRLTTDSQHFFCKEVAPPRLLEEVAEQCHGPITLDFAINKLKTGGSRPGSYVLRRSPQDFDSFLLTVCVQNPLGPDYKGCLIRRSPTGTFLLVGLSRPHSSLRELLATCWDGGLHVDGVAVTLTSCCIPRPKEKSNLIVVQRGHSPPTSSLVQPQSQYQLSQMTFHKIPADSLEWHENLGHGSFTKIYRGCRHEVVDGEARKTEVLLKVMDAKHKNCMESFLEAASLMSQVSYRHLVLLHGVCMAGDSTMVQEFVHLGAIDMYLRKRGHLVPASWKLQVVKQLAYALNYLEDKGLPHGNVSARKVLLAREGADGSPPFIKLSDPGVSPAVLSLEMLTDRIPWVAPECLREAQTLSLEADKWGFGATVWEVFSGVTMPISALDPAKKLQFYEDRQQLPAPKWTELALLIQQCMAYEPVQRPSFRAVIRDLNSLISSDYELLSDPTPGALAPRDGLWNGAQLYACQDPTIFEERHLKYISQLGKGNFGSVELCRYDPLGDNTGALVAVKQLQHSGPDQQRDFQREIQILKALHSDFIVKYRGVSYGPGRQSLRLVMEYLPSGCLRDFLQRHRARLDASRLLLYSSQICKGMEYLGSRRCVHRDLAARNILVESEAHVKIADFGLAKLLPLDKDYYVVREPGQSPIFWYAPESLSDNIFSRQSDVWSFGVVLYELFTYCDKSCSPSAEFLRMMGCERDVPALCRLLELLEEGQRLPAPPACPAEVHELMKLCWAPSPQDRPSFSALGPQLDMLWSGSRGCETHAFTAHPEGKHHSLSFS
Experiment: Inhibition of recombinant TEL-fused JAK3 (unknown origin) expressed in mouse BAF3 cells assessed as growth inhibition after 72 hrs by CellTiter-Glo or CCK-8 assay
Type: cell-based
Measured GI50 by item

Use these answered entries as a reference point.
Task item: Which GI50 value is on record for CCC(=O)Nc1cc(Nc2ncc(C(=O)Nc3cc(NC(=O)c4cccc(C(F)(F)F)c4)ccc3C)c(NC)n2)ccc1C ?
Reply: 8.3 µM

Task item: Which GI50 value is on record for C=CC(=O)Nc1cc(Nc2ncc(C(=O)Nc3cc(NC(=O)c4cc(OC)c(OC)c(OC)c4)ccc3C)c(NC)n2)ccc1C ?
Reply: > 10 µM

Task item: Which GI50 value is on record for C=CC(=O)Nc1cc(Nc2ncc(C(=O)Nc3cc(NC(=O)c4cccc(C(F)(F)F)c4)ccc3C)c(NC)n2)ccc1C ?
Reply: > 10 µM

Now take the following compound into account.
Task item: Which GI50 value is on record for CCC(=O)Nc1cc(Nc2ncc(C(=O)Nc3cc(NC(=O)c4cc(OC)c(OC)c(OC)c4)ccc3C)c(NC)n2)ccc1C ?
Reply: > 10 µM

* * *

Target: Tyrosine-protein kinase BTK (Homo sapiens, UniProt Q06187)
Assay: Inhibition of full-length recombinant human His-tagged BTK expressed in baculovirus expression system using Poly(4:1 Glu, Tyr) as substrate after 1 hr by ADP-Glo kinase assay
reportedEndpoint: IC50

Task item: Identify the measured IC50 of CCC(=O)Nc1cc(Nc2ncc(C(=O)Nc3cc(NC(=O)c4cc(OC)c(OC)c(OC)c4)ccc3C)c(NC)n2)ccc1C for Tyrosine-protein kinase BTK (Homo sapiens, UniProt Q06187).
Reply: > 10 µM

* * *

Biological target: Receptor-type tyrosine-protein kinase FLT3 (Homo sapiens)
Test: Inhibition of recombinant TEL-fused FLT3 (unknown origin) expressed in mouse BAF3 cells assessed as growth inhibition after 72 hrs by CellTiter-Glo or CCK-8 assay
Type: cell-based
reportedEndpoint: GI50

Use these answered entries as a reference point.
Task item: Which GI50 value is on record for CCC(=O)Nc1cc(Nc2ncc(C(=O)Nc3cc(NC(=O)c4cccc(C(F)(F)F)c4)ccc3C)c(NC)n2)ccc1C ?
Reply: 8.6 µM

Task item: Which GI50 value is on record for CCC(=O)Nc1cc(Nc2ncc(C(=O)Nc3cc(NC(=O)c4cc(OC)c(OC)c(OC)c4)ccc3C)c(NC)n2)ccc1C ?
Reply: > 10 µM

Task item: Which GI50 value is on record for C=CC(=O)Nc1cc(Nc2ncc(C(=O)Nc3cc(NC(=O)c4cccc(C(F)(F)F)c4)ccc3C)c(NC)n2)ccc1C ?
Reply: > 10 µM

Now take the following molecule into account.
Task item: Which GI50 value is on record for C=CC(=O)Nc1cc(Nc2ncc(C(=O)Nc3cc(NC(=O)c4cc(OC)c(OC)c(OC)c4)ccc3C)c(NC)n2)ccc1C ?
Reply: > 10 µM

* * *

Target: Tyrosine-protein kinase ABL1 (Homo sapiens) (UniProt P00519)
Sequence (P00519 whole entry, the tested form may be a part): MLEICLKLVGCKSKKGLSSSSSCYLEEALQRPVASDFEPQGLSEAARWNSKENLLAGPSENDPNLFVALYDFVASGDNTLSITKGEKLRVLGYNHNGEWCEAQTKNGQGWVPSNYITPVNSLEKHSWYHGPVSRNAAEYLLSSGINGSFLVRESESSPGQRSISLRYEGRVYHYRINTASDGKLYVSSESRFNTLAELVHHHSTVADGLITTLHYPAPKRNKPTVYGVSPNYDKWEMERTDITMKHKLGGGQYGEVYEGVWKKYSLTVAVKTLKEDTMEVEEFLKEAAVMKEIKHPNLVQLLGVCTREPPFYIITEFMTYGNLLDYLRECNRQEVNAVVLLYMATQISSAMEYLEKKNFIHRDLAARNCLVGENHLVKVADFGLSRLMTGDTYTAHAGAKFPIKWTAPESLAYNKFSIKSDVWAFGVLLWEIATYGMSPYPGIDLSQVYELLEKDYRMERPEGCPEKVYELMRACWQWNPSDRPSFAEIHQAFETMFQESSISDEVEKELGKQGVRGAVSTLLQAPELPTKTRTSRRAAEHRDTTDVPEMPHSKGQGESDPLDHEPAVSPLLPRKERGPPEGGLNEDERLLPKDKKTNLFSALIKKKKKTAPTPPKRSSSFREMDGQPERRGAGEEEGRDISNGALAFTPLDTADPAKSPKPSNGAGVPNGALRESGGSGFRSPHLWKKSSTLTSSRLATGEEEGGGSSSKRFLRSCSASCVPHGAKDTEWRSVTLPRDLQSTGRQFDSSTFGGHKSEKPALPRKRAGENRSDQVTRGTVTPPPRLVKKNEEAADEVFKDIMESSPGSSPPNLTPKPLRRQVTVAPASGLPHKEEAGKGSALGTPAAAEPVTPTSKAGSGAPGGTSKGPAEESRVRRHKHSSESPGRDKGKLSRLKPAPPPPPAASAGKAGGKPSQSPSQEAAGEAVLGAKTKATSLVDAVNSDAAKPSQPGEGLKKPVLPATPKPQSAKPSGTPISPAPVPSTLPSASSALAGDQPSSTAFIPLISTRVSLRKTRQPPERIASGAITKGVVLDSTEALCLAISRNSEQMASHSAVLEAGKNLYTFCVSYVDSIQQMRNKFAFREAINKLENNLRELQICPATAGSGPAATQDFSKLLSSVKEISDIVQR
Experiment: Inhibition of recombinant TEL-fused ABL (unknown origin) expressed in mouse BAF3 cells assessed as growth inhibition after 72 hrs by CellTiter-Glo or CCK-8 assay
Type: cell-based
reportedEndpoint: GI50 (nM)

Task item: Which GI50 value is on record for C=CC(=O)Nc1cc(Nc2ncc(C(=O)Nc3cc(NC(=O)c4cccc(C(F)(F)F)c4)ccc3C)c(NC)n2)ccc1C ?
Reply: 118

P = C=CC(=O)Nc1cc(Nc2ncc(C(=O)Nc3cc(NC(=O)c4cc(OC)c(OC)c(OC)c4)ccc3C)c(NC)n2)ccc1C
Q = CCC(=O)Nc1cc(Nc2ncc(C(=O)Nc3cc(NC(=O)c4cccc(C(F)(F)F)c4)ccc3C)c(NC)n2)ccc1C
Task item: Select one. Lower GI50: P or Q Answer = label.
Reply: Q

* * *

Assay: Growth inhibition of mouse BAF3 cells after 72 hrs by CellTiter-Glo or CCK-8 assay
Format: cell-based
reportedEndpoint: GI50 at 72 h (µM)
Note: unit µM is implicit; provide only the numeric part.

Task item: Which GI50 at 72 h value is on record for C=CC(=O)Nc1cc(Nc2ncc3c(n2)N(C)C(=O)N(c2cc(NC(=O)[C@H]4CC[C@H](CCCC)CC4)ccc2C)C3)ccc1C ?
Reply: 5.08

Now take the following compound into account.
Task item: Which GI50 at 72 h value is on record for C=CC(=O)Nc1cc(Nc2ncc3c(n2)N(C)C(=O)N(c2cc(NC(=O)[C@H]4CC[C@H](CCC)CC4)ccc2C)C3)ccc1C ?
Reply: 7.4

* * *

Test: Mean residence time (0 to t) in Sprague-Dawley rat at 1 mg/kg, iv
Assay type: ADME, organism-based
Conditions: in vivo
reportedEndpoint: MRT last (min)
Note: unit min is implicit; provide only the numeric part.

Task item: Which MRT last value is on record for C=CC(=O)Nc1cc(Nc2ncc(C(=O)Nc3cc(NC(=O)c4cc(OC)c(OC)c(OC)c4)ccc3C)c(NC)n2)ccc1C ?
Reply: 13.4

* * *

Target: Epithelial discoidin domain-containing receptor 1 (Homo sapiens)
Sequence (Q08345 whole entry, the tested form may be a part): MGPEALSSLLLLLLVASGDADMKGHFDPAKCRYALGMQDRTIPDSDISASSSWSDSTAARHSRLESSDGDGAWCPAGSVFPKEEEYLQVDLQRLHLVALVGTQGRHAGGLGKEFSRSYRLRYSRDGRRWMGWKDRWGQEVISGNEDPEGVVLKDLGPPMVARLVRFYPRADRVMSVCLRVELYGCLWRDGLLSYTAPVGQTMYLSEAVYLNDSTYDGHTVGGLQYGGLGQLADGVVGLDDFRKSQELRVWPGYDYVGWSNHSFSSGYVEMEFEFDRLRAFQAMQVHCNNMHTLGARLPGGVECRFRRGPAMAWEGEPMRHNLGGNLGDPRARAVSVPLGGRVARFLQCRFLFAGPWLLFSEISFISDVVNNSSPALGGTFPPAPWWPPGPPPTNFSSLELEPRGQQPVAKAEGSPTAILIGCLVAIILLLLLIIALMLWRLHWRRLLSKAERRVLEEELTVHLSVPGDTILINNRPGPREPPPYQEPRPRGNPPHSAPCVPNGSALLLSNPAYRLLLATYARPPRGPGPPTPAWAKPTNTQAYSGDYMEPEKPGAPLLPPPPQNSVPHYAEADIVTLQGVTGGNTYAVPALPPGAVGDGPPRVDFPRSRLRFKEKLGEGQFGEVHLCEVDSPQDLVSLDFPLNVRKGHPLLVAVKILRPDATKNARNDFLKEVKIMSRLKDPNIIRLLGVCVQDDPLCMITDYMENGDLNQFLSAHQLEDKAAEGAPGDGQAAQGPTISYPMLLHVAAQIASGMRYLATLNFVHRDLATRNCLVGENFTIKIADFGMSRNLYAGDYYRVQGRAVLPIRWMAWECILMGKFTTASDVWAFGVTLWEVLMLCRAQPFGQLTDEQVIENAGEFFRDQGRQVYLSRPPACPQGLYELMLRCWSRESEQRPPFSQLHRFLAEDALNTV
reportedEndpoint: IC50 (µM)
Note: unit µM is implicit; provide only the numeric part.

Task item: Identify the measured IC50 of CCC(=O)Nc1cc(Nc2ncc(C(=O)Nc3cc(NC(=O)c4cc(OC)c(OC)c(OC)c4)ccc3C)c(NC)n2)ccc1C for Epithelial discoidin domain-containing receptor 1 (Homo sapiens).
Reply: 0.212

* * *

Assay: Half-life in Sprague-Dawley rat at 10 mg/kg, po
Format: ADME, organism-based
Conditions: in vivo
reportedEndpoint: half-life (h)
Note: unit h is implicit; provide only the numeric part.

Task item: Which half-life value is on record for C=CC(=O)Nc1cc(Nc2ncc(C(=O)Nc3cc(NC(=O)c4cc(OC)c(OC)c(OC)c4)ccc3C)c(NC)n2)ccc1C ?
Reply: 6.11

* * *

Experiment: Cmax in Sprague-Dawley rat at 10 mg/kg, po up to 24 hrs
Format: ADME, organism-based
Design: dose 10 mg/kg, route oral
Details: in vivo
reportedEndpoint: Cmax (ng/mL)
Note: unit ng/mL is implicit; provide only the numeric part.

Task item: Which Cmax value is on record for C=CC(=O)Nc1cc(Nc2ncc(C(=O)Nc3cc(NC(=O)c4cc(OC)c(OC)c(OC)c4)ccc3C)c(NC)n2)ccc1C ?
Reply: 5.58
